target-or-system: UniProt:O00482
Sequence (O00482 whole entry): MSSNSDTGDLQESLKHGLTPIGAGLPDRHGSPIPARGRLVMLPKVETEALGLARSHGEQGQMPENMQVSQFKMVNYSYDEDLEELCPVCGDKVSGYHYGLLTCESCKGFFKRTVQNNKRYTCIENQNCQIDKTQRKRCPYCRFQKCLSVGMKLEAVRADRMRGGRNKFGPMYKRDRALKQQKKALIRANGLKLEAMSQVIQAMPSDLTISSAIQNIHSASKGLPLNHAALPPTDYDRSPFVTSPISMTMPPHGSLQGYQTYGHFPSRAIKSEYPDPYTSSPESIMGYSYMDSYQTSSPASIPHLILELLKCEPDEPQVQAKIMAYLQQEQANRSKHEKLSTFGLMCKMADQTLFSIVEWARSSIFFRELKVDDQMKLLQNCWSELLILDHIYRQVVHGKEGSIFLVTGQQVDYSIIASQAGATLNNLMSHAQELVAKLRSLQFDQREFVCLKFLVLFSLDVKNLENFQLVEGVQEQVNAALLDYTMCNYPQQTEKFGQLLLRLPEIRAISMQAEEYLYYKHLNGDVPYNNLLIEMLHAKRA
Type: functional, cell-based
Calls of active or inactive are those of the source.
Your response should consist of one outcome taken from 1 (active), -1 (inactive)

In: What did the test return for O=C(CCl)NCCN1C(=O)S/C(=C\c2cccnc2)C1=O ?
Out: 1

---
In: What did the test return for Cc1cc(OCC(=O)N2CCC(O)CC2)c2c(C)cc(=O)oc2c1 ?
Out: -1

In: What did the test return for O=C(NCc1ccco1)c1nn(-c2ccccc2)c(=O)c2ccccc12 ?
Out: -1

In: What did the test return for Cc1cc(C)c2nc(NC(=O)c3ccc([N+](=O)[O-])o3)sc2c1 ?
Out: -1

In: What did the test return for Cc1cc(C)c2c(O)nc(SCC(=O)Nc3ccc(Br)cc3)nc2n1 ?
Out: -1

In: What did the test return for CC1CC(C)CN(c2cc(N(C)CCO)c([N+](=O)[O-])c3nonc23)C1 (stereo unspecified) ?
Out: 1
